assay name: inhibitors of TNFa-induced NFkB p65 translocation, primary screen, imaging, HUVEC, MLSMR starter and 10KST1 sets (AID 438);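 further: compound added about 3h40 before a 20 min TNFalpha stimulation; signal is the nuclear over cytoplasmic p65 intensity ratio per well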
condition details: HUVEC TNFa-induced p65 nuclear translocation; at 2 µM, stronger effect = higher value, 0% TNFa-plus-vehicle, 100% no-TNFa wells
measured attribute: inhibition (%)
Numeric only. Scale: %

Previously resolved entries follow.
{"molecule": "COc1ccccc1-c1nnc2sc(-c3ccc(N(C)C)cc3)nn12", "readout number": -11.2}
{"molecule": "N=c1c(C(=O)NCc2ccc(F)cc2)cc2c(=O)n3ccccc3nc2n1CCCN1CCOCC1", "readout number": 4.4}
{"molecule": "O=C(NC1CC2CCC1C2)C1COc2ccccc2O1 (centres undefined)", "readout number": -3.7}
{"molecule": "Nc1c(Sc2ccccc2)c(=O)[nH]c(=O)n1Cc1ccccc1", "readout number": 7.4}
{"molecule": "Cc1cc(C)c2c(=O)[nH]c(=O)n(Cc3ccccc3)c2n1", "readout number": 20}
{"molecule": "CC(=O)c1ccc(NC(=O)c2noc3c2CCCCC3)cc1", "readout number": 2.3}
{"molecule": "COCCCNC(=O)c1ccc2c(c1)OCO2", "readout number": 1.4}
{"molecule": "Cn1c(=O)c2c(nc(SCC(=O)O)n2Cc2cccc(C(F)(F)F)c2)n(C)c1=O", "readout number": -0.8}

// inhibition lookup, key: COC(=O)c1cc(Br)c(=O)n(CCN2CCOCC2)c1
5.4

// inhibition lookup, key: CCOC(=O)CSc1cn2c(n1)CCC2
-10.9

// inhibition lookup, key: Cc1ccc2[nH]c(=O)c(CN(CCCO)S(=O)(=O)c3c(C)ccc4nsnc34)cc2c1
-2.5

// inhibition lookup, key: CCS(=O)(=O)N1CCC(C(=O)NC2CCCCC2)CC1
4.5

// inhibition lookup, key: CCn1c(=N)n(CC(=O)C23CC4CC(CC(C4)C2)C3)c2ccccc21
-26.7

// inhibition lookup, key: CN(C)/C=c1\sc2c(C#N)cc(C(=O)c3ccc(Br)cc3)n2c1=O
8.6

// inhibition lookup, key: Cc1ccc(Oc2ccc(-c3nc(N)nc(N)n3)cc2)cc1
-6

// inhibition lookup, key: CCOC(=O)c1[nH]c(C)c(C(=O)Nc2cc(OC)ccc2OC)c1C
-5.9

// inhibition lookup, key: COC(=O)CCCCCNc1ccc(C(=O)OC)cc1N
7.7

// inhibition lookup, key: CCCc1nc2ccccc2c2nc(N)nn12
7.7

// inhibition lookup, key: COc1ccc(-c2ccc(-c3nnc(-c4ccncc4)o3)cc2)cc1
-7.7

// inhibition lookup, key: CN(CC(=O)Nc1ccncc1)S(=O)(=O)c1ccccc1
4.9

// inhibition lookup, key: O=C(c1ccccc1)c1coc2ccc(O)c(CN3CCOCC3)c12
-5.8

// inhibition lookup, key: CC(Oc1ccc2oc(-c3ccccc3)c(C(=O)O)c2c1)C(=O)O (centres undefined)
10.6

// inhibition lookup, key: N#CCCn1cnc2ccccc21
5.6

// inhibition lookup, key: O=C(CSc1nc2ccc(Cl)cc2[nH]1)NCc1ccco1
17.8
